The reported measurements were obtained from ChEMBL document CHEMBL1138404.

- System: Klebsiella oxytoca
- Assay Overview: Antibacterial activity against […] Klebsiella oxytoca 1082E
- Type: functional
Give MIC for every item shown.

Below are worked cases with known answers.
O=C1NC[C@@H](c2c[nH]c3ccccc23)N=C1c1c[nH]c2ccccc12 ... > 25 µg/mL
O=C1NC[C@@H](c2c[nH]c3ccccc23)N[C@H]1c1c[nH]c2cc(Br)ccc12 ... > 25 µg/mL
O=C1N[C@@H](c2c[nH]c3ccccc23)CN=C1c1c[nH]c2ccccc12 ... > 25 µg/mL
O=C1NC[C@@H](c2c[nH]c3cc(Br)ccc23)N=C1c1c[nH]c2ccccc12 [(R)-6'-DEBROMOHAMACANTHIN B] ... 25 µg/mL

Next item in the queue.
Query :: Give its MIC value. Item: `O=C1N[C@H](c2c[nH]c3cc(Br)ccc23)CN[C@H]1c1c[nH]c2ccccc12`
Result :: > 25 µg/mL

* * *

- System: Streptococcus pyogenes
- Assay Overview: Antibacterial activity against methicillin-resistant Streptococcus pyogenes 308A
- Type: functional
Give MIC for every item shown.
Give bare numbers, in µg/mL.

Below are worked cases with known answers.
O=C(C1=NC(c2c[nH]c3ccccc23)CN1)c1c[nH]c2cc(Br)ccc12 (stereo not drawn) ... 25
O=C1NC[C@@H](c2c[nH]c3ccccc23)N[C@H]1c1c[nH]c2cc(Br)ccc12 ... 25
O=C1NC[C@@H](c2c[nH]c3cc(Br)ccc23)N[C@H]1c1c[nH]c2ccccc12 ... 25
O=C1NC[C@@H](c2c[nH]c3cc(Br)ccc23)N=C1c1c[nH]c2ccccc12 [(R)-6'-DEBROMOHAMACANTHIN B] ... 6.3
C[C@@H](O)[C@H]1C(=O)N2C(C(=O)O)=C(S[C@@H]3CN[C@H](C(=O)N(C)C)C3)[C@H](C)[C@H]12 ... 0.004

Query :: Give its MIC value. Item: `O=C1N[C@@H](c2c[nH]c3ccccc23)CN=C1c1c[nH]c2ccccc12`
Result :: 25

* * *

- System: Klebsiella oxytoca
- Assay Overview: Antibacterial activity against […] Klebsiella oxytoca 1082E
- Type: functional
Quantity: MIC (µg/mL)
Give bare numbers, in µg/mL.

O=C(C1=NC(c2c[nH]c3ccccc23)CN1)c1c[nH]c2cc(Br)ccc12 (stereo not drawn) ... 25

Next item in the queue.
Query :: Give its MIC value. Item: `C[C@@H](O)[C@H]1C(=O)N2C(C(=O)O)=C(S[C@@H]3CN[C@H](C(=O)N(C)C)C3)[C@H](C)[C@H]12`
Result :: 0.049

* * *

- Tested on: Staphylococcus aureus
- Assay Overview: Antibacterial activity against methicillin-resistant Staphylococcus aureus 285
- Type: functional
Give MIC for every item shown.

Below are worked cases with known answers.
O=C(C1=NC(c2c[nH]c3ccccc23)CN1)c1c[nH]c2cc(Br)ccc12 (stereo not drawn) [SPONGOTINE B] ... 25 µg/mL
O=C1NC[C@@H](c2c[nH]c3cc(Br)ccc23)N[C@H]1c1c[nH]c2ccccc12 ... > 25 µg/mL
C[C@@H](O)[C@H]1C(=O)N2C(C(=O)O)=C(S[C@@H]3CN[C@H](C(=O)N(C)C)C3)[C@H](C)[C@H]12 [MEROPENEM] ... 0.098 µg/mL

Could you tell me MIC for each of these compounds? They are listed below.
1. O=C1N[C@@H](c2c[nH]c3ccccc23)CN=C1c1c[nH]c2ccccc12
2. O=C1N[C@H](c2c[nH]c3cc(Br)ccc23)CN[C@H]1c1c[nH]c2ccccc12
3. O=C1NC[C@@H](c2c[nH]c3ccccc23)N[C@H]1c1c[nH]c2cc(Br)ccc12
4. O=C1NC[C@@H](c2c[nH]c3ccccc23)N=C1c1c[nH]c2ccccc12
5. O=C1NC[C@@H](c2c[nH]c3cc(Br)ccc23)N=C1c1c[nH]c2ccccc12 [(R)-6'-DEBROMOHAMACANTHIN B]

Result ::
> 25 µg/mL
> 25 µg/mL
> 25 µg/mL
> 25 µg/mL
12.5 µg/mL
